System: DMS-114 complex spheroids with HUVEC/MSC, growth % test/control
assayNotes: Anticancer human tumor DMS-114 cell line growth inhibition [AhR]; active = viability on the fitted dose curve at most 10% of control; inactive = the rest;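 also: spheroids exposed to agents for 7 days before readout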
testConditions: second compound 0.1 µM; first compound 0.03 µM
Please state which outcome applies, choosing from active, inactive

## Task What did this assay record as the result for CCN(c1cc(-c2ccc(CN3CCOCC3)cc2)cc(C(=O)NCc2c(C)cc(C)[nH]c2=O)c1C)C1CCOCC1 + Cc1cncc(-c2nc(NCCc3c[nH]c4ccccc34)c3ncn(C(C)C)c3n2)c1 ?
## Result inactive

## Task What did this assay record as the result for Nc1ncn(C2CC(O)C(CO)S2)c(=O)n1 (configuration not stated) + CC(CO)NC(=O)c1cc(-c2ccc(Cl)cc2)nn(-c2cnn(C)c2)c1=O ?
## Result inactive

## Task What did this assay record as the result for CC(C)CC(NC(=O)C(Cc1ccccc1)NC(=O)c1cnccn1)B(O)O (configuration not stated) + Cc1ccccc1N=Nc1ccc(NC(=O)c2ccnn2C)c(C)c1 ?
## Result active

## Task What did this assay record as the result for O=C(C=Cn1cnc(-c2cc(C(F)(F)F)cc(C(F)(F)F)c2)n1)NNc1cnccn1 + Cc1ccccc1N=Nc1ccc(NC(=O)c2ccnn2C)c(C)c1 ?
## Result inactive

## Task What did this assay record as the result for CC(C)CC(NC(=O)C(Cc1ccccc1)NC(=O)c1cnccn1)B(O)O (configuration not stated) + Cc1cncc(-c2nc(NCCc3c[nH]c4ccccc34)c3ncn(C(C)C)c3n2)c1 ?
## Result active

## Task What did this assay record as the result for CCN(c1cc(-c2ccc(CN3CCOCC3)cc2)cc(C(=O)NCc2c(C)cc(C)[nH]c2=O)c1C)C1CCOCC1 + Cc1ccccc1N=Nc1ccc(NC(=O)c2ccnn2C)c(C)c1 ?
## Result inactive

## Task What did this assay record as the result for Nc1ncn(C2CC(O)C(CO)S2)c(=O)n1 (configuration not stated) + Cc1cncc(-c2nc(NCCc3c[nH]c4ccccc34)c3ncn(C(C)C)c3n2)c1 ?
## Result inactive

## Task What did this assay record as the result for CCc1c2c(nc3ccc(O)cc13)-c1cc3c(c(=O)n1C2)COC(=O)[C@]3(O)CC + Cc1cncc(-c2nc(NCCc3c[nH]c4ccccc34)c3ncn(C(C)C)c3n2)c1 ?
## Result inactive

## Task What did this assay record as the result for CCN(c1cc(-c2ccc(CN3CCOCC3)cc2)cc(C(=O)NCc2c(C)cc(C)[nH]c2=O)c1C)C1CCOCC1 + CC(CO)NC(=O)c1cc(-c2ccc(Cl)cc2)nn(-c2cnn(C)c2)c1=O ?
## Result inactive

## Task What did this assay record as the result for O=C(C=Cn1cnc(-c2cc(C(F)(F)F)cc(C(F)(F)F)c2)n1)NNc1cnccn1 + CC(CO)NC(=O)c1cc(-c2ccc(Cl)cc2)nn(-c2cnn(C)c2)c1=O ?
## Result inactive

## Task What did this assay record as the result for CCc1c2c(nc3ccc(O)cc13)-c1cc3c(c(=O)n1C2)COC(=O)[C@]3(O)CC + CC(CO)NC(=O)c1cc(-c2ccc(Cl)cc2)nn(-c2cnn(C)c2)c1=O ?
## Result inactive

## Task What did this assay record as the result for CC(C)CC(NC(=O)C(Cc1ccccc1)NC(=O)c1cnccn1)B(O)O (configuration not stated) + CC(CO)NC(=O)c1cc(-c2ccc(Cl)cc2)nn(-c2cnn(C)c2)c1=O ?
## Result active
